Molecular target: CRTH2 (Homo sapiens, UniProt Q9Y5Y4)
Construct: polymorphonuclear cells (0.5 ml; 10^6/ml cells) in PBS containing 0.9 mM CaCl2 and 0.5 mM MgCl2; endogenous in cells; host or cells: polymorphonuclear cells (eosinophils gated by flow cytometry)
Sequence (Q9Y5Y4 1-395): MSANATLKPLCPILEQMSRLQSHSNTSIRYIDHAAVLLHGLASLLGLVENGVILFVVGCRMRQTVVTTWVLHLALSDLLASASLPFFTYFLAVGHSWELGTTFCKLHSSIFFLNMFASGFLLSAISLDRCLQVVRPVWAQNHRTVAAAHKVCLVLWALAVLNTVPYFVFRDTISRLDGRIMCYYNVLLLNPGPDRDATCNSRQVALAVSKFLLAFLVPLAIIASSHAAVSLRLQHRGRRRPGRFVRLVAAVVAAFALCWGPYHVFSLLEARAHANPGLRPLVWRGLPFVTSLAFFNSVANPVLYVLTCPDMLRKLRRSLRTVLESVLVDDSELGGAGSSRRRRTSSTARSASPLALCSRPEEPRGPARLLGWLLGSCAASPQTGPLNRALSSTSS
Experiment: DPBS CD11b Antagonist Assay
Format: cell-based
Conditions: polymorphonuclear cells in PBS with CaCl2/MgCl2; CD11b expression in eosinophils; agonist 15R-Methyl-PGD2 (10 nM)
ASSAY_READOUT: IC50

Known results for compounds:
>>> result("Cc1c(Cc2ccccc2S(=O)(=O)N2CCOCC2)c2ccsc2n1CC(=O)O [Compound I-6]")
"< 1 nM"
>>> result("Cc1c(Cc2ccccc2S(=O)(=O)N2CCCC2)c2ccsc2n1CC(=O)O [Compound I-1]")
"< 1 nM"
>>> result("Cc1c(Cc2ccccc2S(=O)(=O)N2CCCC2)c2scnc2n1CC(=O)O [Compound I-2]")
"100 to 500 nM"
>>> result("Cc1c(Cc2ccccc2S(=O)(=O)c2ccccc2)c2ccsc2n1CC(=O)O [Compound I-3]")
"< 1 nM"
>>> result("Cc1c(Cc2ccccc2S(=O)(=O)N2CCCC2)c2sccc2n1CC(=O)O [Compound I-4]")
"1 to 5 nM"

For the next question, use this compound.
Which IC50 is reported with CRTH2 (Homo sapiens, UniProt Q9Y5Y4) for this entry: Cc1c(Cc2ccccc2S(=O)(=O)N2CCOCC2)c2scnc2n1CC(=O)O [Compound I-5] ?
3000 to 5000 nM

Cited source for all entries: patent US20130216552A1
